- experimental system: T1, recombinant human IL-6 (human, UniProt P05231 30-212)
- T1 construct: Flowed in solution over the captured antibodies
- T1 sequence (P05231 30-212 limits assumed): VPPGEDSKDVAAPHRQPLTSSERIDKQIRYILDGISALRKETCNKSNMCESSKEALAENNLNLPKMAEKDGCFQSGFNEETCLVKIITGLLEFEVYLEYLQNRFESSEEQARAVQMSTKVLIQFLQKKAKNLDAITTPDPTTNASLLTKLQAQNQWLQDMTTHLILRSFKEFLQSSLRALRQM
- assay: SPR (Biacore), supernatant IgG on Protein A, 25 C
metric: koff (s⁻¹)

INSERT INTO measurements (binder, metric, result_unit, measurement) VALUES
  ('anti-IL-6 antibody, heavy chain S35H, light chain WT (antibody, IgG1, V domains shown, Full IgG1 tested; V domains derived as in m2) VH: EVQLVESGGGLVQPGGSLRLSCAASGFTFSPFAMHWVRQAPGKGLEWVAKISPGGSWTYYSDTVTGRFTFSLDTSKSTAYLQMNSLRAEDTAVYYCARQLWGYYALDIWGQGTLVTVSS VL: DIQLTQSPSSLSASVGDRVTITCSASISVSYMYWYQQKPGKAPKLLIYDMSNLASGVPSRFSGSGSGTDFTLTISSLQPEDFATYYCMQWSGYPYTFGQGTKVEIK', 'koff', 's⁻¹', 0.000132),
  ('anti-IL-6 antibody, heavy chain WT, light chain I27W (antibody, IgG1, V domains shown, Full IgG1 tested; V domains derived as in m2) VH: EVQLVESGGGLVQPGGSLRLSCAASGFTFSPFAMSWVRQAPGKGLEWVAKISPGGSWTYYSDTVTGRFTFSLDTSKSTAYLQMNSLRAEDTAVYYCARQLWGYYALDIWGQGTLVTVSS VL: DIQLTQSPSSLSASVGDRVTITCSASWSVSYMYWYQQKPGKAPKLLIYDMSNLASGVPSRFSGSGSGTDFTLTISSLQPEDFATYYCMQWSGYPYTFGQGTKVEIK', 'koff', 's⁻¹', 0.000161);
